Provenance of the data: patent US20120309750A1

# target: yeast HSP90 (Saccharomyces cerevisiae)
# Sequence (P02829 whole entry): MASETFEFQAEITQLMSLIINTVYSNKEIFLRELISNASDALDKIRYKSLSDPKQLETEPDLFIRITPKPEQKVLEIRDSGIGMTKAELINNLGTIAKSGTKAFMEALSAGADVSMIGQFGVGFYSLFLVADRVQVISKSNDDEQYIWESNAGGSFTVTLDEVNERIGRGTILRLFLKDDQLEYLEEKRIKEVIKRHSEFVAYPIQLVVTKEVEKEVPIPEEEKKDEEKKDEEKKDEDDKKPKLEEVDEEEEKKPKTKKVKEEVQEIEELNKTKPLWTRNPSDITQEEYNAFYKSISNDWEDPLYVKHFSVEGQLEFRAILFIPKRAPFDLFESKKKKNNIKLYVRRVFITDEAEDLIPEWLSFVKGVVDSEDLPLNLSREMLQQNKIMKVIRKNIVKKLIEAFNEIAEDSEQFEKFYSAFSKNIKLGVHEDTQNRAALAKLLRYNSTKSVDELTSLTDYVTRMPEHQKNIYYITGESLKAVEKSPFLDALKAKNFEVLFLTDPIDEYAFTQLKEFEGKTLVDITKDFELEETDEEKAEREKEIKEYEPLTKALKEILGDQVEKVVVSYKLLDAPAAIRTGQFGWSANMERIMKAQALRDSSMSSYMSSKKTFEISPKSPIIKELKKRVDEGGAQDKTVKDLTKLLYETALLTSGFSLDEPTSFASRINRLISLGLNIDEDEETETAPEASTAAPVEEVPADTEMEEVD
# experimentSummary: Hsp90 ATPase assay (malachite green)
# Type: biochemical
Below, each entry is listed with its recorded IC50.

Previously resolved entries follow.
INSERT INTO measurements (compound, target, datavalue) VALUES
  ('CCNC(=O)c1noc(-c2cc(C(C)C)c(O)cc2O)c1-c1noc(N)n1 [Compound I-78]', 'yeast HSP90 (Saccharomyces cerevisiae)', '< 500 nM'),
  ('CCNC(=O)c1noc(-c2cc(C(C)C)c(O)cc2O)c1-c1noc(NC)n1 [Compound I-79]', 'yeast HSP90 (Saccharomyces cerevisiae)', '500 to 1000 nM'),
  ('CCNC(=O)c1noc(-c2cc(C(C)C)c(O)cc2O)c1-c1cc(CNC(=O)CC)no1 [Compound I-34]', 'yeast HSP90 (Saccharomyces cerevisiae)', '< 500 nM');

Read the next record carefully.
# IC50 lookup, item CCNC(=O)c1noc(-c2cc(C(C)C)c(O)cc2O)c1-c1noc(OC)n1 [Compound I-86] 500 to 1000 nM
